Catalogue of molecules with associated solubility
- PROTOCOL DETAILS: Solubility of the compound in phosphate buffer at pH 7.4
- Assay type: physicochemical
Non-standard residues stand in square brackets, D forms with d. Residues, ends and D or L forms follow the SMILES beside them. *: point of attachment. S(CH2)2OCO2(CPT-20-yl) = CC[C@@]1(OC(=O)OCCS*)C(=O)OCc2c1cc1n(c2=O)Cc2cc3ccccc3nc2-1; Ahx = NCCCCCC(=O)O
RECORDED METRIC: solubility

MOLECULE	RECORDED METRIC	EXPERIMENTAL RESULT
CC[C@@]1(O)C(=O)OCc2c1cc1n(c2=O)Cc2cc3ccccc3nc2-1 [CAMPTOTHECIN]	solubility	2.7 µg/mL
CC[C@@]1(OC(=O)OCCSSC[C@H](N)C(=O)N[C@@H](CCCNC(=N)N)C(=O)N2CCC[C@H]2C(=O)N[C@@H](CCCCN)C(=O)N2CCC[C@H]2C(=O)N[C@@H](CCC(N)=O)C(=O)N[C@@H](CCC(N)=O)C(=O)N[C@@H](Cc2ccccc2)C(=O)N[C@@H](Cc2ccccc2)C(=O)NCC(=O)N[C@@H](CC(C)C)C(=O)N[C@@H](CCSC)C(N)=O)C(=O)OCc2c1cc1n(c2=O)Cc2cc3ccccc3nc2-1	solubility	103 µg/mL
CC[C@@]1(OC(=O)OCCSSC[C@H](N)C(=O)NCCCCCC(=O)N[C@@H](CCC(N)=O)C(=O)N[C@@H](Cc2ccccc2)C(=O)N[C@@H](Cc2ccccc2)C(=O)NCC(=O)N[C@@H](CC(C)C)C(=O)N[C@@H](CCSC)C(N)=O)C(=O)OCc2c1cc1n(c2=O)Cc2cc3ccccc3nc2-1 (H-C(S(CH2)2OCO2(CPT-20-yl))[Ahx]QFFGLM-NH2)	solubility	8.4 µg/mL
